molecular target: T1, recombinant human CD3 epsilon/gamma heterodimer (human, UniProt P07766 23-126; P09693 23-116); experiment: Octet BLI, mAb on FAB2G sensor, hCD3 E/G 200-50 nM; R^2 0.99
T1 construct: Recombinant protein in solution (200-50 nM) in the Octet assay; also called hCD3 E/G
T1 sequence (P07766 23-126, chain 1 of 2): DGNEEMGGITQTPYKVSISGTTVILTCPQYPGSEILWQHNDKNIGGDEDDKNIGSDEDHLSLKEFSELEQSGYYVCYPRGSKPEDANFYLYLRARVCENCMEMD
T1 sequence (P09693 23-116, chain 2 of 2): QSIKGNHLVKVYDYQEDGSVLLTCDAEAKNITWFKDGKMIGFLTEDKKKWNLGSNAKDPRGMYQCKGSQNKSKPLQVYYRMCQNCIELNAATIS
Hi there, I'd appreciate the recorded Response for every entry that follows.
Respond with the number and no other words.

Request: # Response lookup, item ABL-CD3-24 (antibody, V domains shown, Chimeric hybridoma mAb: human V, CH1, upper hinge; mouse middle hinge, CH2, CH3) VH: EVQLVESGGGLVKPGGSLRLSCVASGFTFSSYTMNWVRQAPGKGLEWVSSISRSGSYKYNADSVKGRFTISRDNAKNSLYLQMNSLRVEDTAVYYCAREPPTLGMDYWGQGTLVTVSS VL: NFMLTQPHSVSESPGKTVTISCTRSSGSIASNYVQWYQQRPGSSPTTVIYEDNQRPSGVPDRFSGSIDSSSNSASLTISGLKTEDEADYYCQSFYSSNRVFGGGTELTVL
Response: 0.89

Request: Request the reported Response associated with ABL-CD3-56 (antibody, V domains shown, Chimeric hybridoma mAb: human V, CH1, upper hinge; mouse middle hinge, CH2, CH3) VH: EVQLVESGGGLVKPGGSLRLSCVASGFTFSRYSMNWVRQAPGKGLEWVSSISSSSRYTYYADSLKGRFIMSRDNAKNSLFLQMNSLRAEDTAVYYCARNLYNALDYWGQGTLVTVSS VL: FMLTQPHSVSESPGKTVTISCTRSSGSIASNYVQWYQQRPGSSPTTVIYEDNQRPSGVPDRFSGSIDSSSNSASLTISGLQTEDEADYYCQSYDSSNRVFGGGTKLTVL
Response: 1.3

Request: Which Response value belongs to ABL-CD3-48 (antibody, V domains shown, Chimeric hybridoma mAb: human V, CH1, upper hinge; mouse middle hinge, CH2, CH3) VH: EVQLVESGGGLVKPGGSLRLSCAASGFTFSSYTMNWVRQAPGKGLEWVSSISGSGSYIYYADSVKGRFTISRDNAKNSLYLQMNSLRAEDTAVYYCAREPPTLGMDYWGQGTLVTVSS VL: NFMLTQPHSVSESPGKTVTISCTRSSGSIASNYVQWYQQRPGSSPTTVIYEDNQRPSGVPDRFSGSIDSSSNSASLTISGLKTEDEADYYCQSFDSSNRVFGGGTKLTVL ?
Response: 1.03
